Taken from patent US10870638B2.

Tested on: soybean (Glycine max Merr.)
Experiment: Test Example 1: foliar treatment, growth inhibition rate on 14th day
Type: in vivo
Settings: active ingredient amount 31 g/ha, 14th day after application
PARAMETER MEASURED: Growth inhibition rate (%) Soybean

1. Cc1ccc(Oc2nc3ccccc3o2)cc1-c1c(O)c(C)nn(C)c1=O :: 10
2. CCn1nc(C)c(OC(C)=O)c(-c2cc(Oc3nc4ccc(Cl)cc4o3)ccc2C)c1=O :: 30
3. COC(=O)OC(C)Oc1cnn(C)c(=O)c1-c1cc(Oc2nc3ccc(Cl)cc3o2)ccc1C (stereo not drawn) :: 0
4. CC(=O)Cn1ncc(O)c(-c2cc(Oc3ncc(C(F)(F)F)cc3Cl)ccc2C)c1=O :: 0
5. COC(=O)OC(C)Oc1c(C)nn(C)c(=O)c1-c1cc(Oc2cnc3cc(Cl)ccc3n2)ccc1C (stereo not drawn) :: 10
6. CCc1nn(C)c(=O)c(-c2cc(Oc3ncc(C(F)(F)F)cc3Cl)ccc2C)c1O :: 10

====

Tested on: corn (Zea mays L.)
Assay: Test Example 1: foliar treatment, growth inhibition rate on 14th day
Assay type: in vivo
Conditions: active ingredient amount 31 g/ha, 14th day after application
Experimental: Upland field soil was put into a 1/300,000 hectare pot, and seeds of various plants were sown. […] On the 14th day after the application, the state of growth of the respective plants was visually observed, and the herbicidal effect was evaluated by a growth inhibition rate (%) of 0 (equivalent to the non-treated area) to 100 (complete kill).
Overview of recorded Growth inhibition rate (%) Corn for various compounds
PARAMETER MEASURED: Growth inhibition rate (%) Corn

1) Cc1ccc(Oc2nc3ccc(Cl)cc3o2)cc1-c1c(O)cnn(CC2CC2)c1=O [Compound 2-186] :: 98%
2) CC(=O)Oc1c(C)nn(C)c(=O)c1-c1cc(Oc2ncc(C(F)(F)F)cc2Br)ccc1C [Compound 2-115] :: 98%
3) CC(=O)Oc1c(C)nn(C)c(=O)c1-c1cc(Oc2nc3ccc(C)cc3s2)ccc1C [Compound 2-152] :: 0%
4) COc1ccc2nc(Oc3ccc(C)c(-c4c(OC(C)=O)c(C)nn(C)c4=O)c3)sc2c1 [Compound 2-154] :: 0%
5) Cc1nn(C)c(=O)c(-c2cc(Oc3nc4ccc(Cl)cc4o3)ccc2OC(F)(F)F)c1O [Compound 2-175] :: 95%
6) Cc1ccc(Oc2nc3ccccc3o2)cc1-c1c(O)c(C)nn(C)c1=O [Compound 2-104] :: 10%

====

Overview of recorded Growth inhibition rate (%) Barnyardgrass for various compounds
Tested on: barnyardgrass (Echinochloa crus-qalli L.)
Test: Test Example 1: foliar treatment, growth inhibition rate on 14th day
Format: in vivo
Details: active ingredient amount 31 g/ha, 14th day after application
PARAMETER MEASURED: Growth inhibition rate (%) Barnyardgrass

1) CC(=O)Oc1c(C)nn(C)c(=O)c1-c1cc(Oc2ncc(C(F)(F)F)cc2Cl)c(C)cc1C :: 100
2) Cc1ccc(Oc2ncc3cc(Br)ccc3n2)cc1-c1c(O)c(C)nn(C)c1=O :: 90
3) C=CCn1ncc(O)c(-c2cc(Oc3ncc(C(F)(F)F)cc3Cl)ccc2C)c1=O :: 98
4) CCc1nn(C)c(=O)c(-c2cc(Oc3nc4ccc(Cl)cc4o3)ccc2C)c1OC(C)=O :: 100
5) Cc1ccc(Oc2cnc3cc(Cl)ccc3n2)cc1-c1c(OC(=O)C(C)(C)C)c(C)nn(C)c1=O :: 100
6) CC(=O)Oc1c(C)nn(C)c(=O)c1-c1cc(Oc2ncc3cc(Br)ccc3n2)ccc1C :: 90
7) CC(=O)Oc1c(C)nn(C)c(=O)c1-c1cc(Oc2ccc(C(F)(F)F)cn2)ccc1C :: 99
8) Cc1ccc(Oc2nc3cc(F)ccc3o2)cc1-c1c(O)cnn(C)c1=O :: 95
9) CC(=O)Oc1c(C)nn(C)c(=O)c1-c1cc(Oc2ncc(Cl)cc2Cl)ccc1C :: 85
10) CCOC(=O)OC(C)Oc1c(C)nn(C)c(=O)c1-c1cc(Oc2ncc(C(F)(F)F)cc2Cl)ccc1C (stereo not drawn) :: 100
11) CC(=O)Oc1cnn(C)c(=O)c1-c1cc(Oc2nc3ccc(Cl)cc3o2)ccc1C :: 100
12) Cc1ccc(Oc2cnc3cc(Cl)ccc3n2)cc1-c1c(OC(=O)C2CC2)c(C)nn(C)c1=O :: 100
